Documented koff across a set of binders
- EXPERIMENTAL TARGET: T1, human ST2L (human, UniProt Q01638 19-328, limits assumed)
- T1 construct: also called IL-1R4; IL-33Ra
- T1 sequence (looked up): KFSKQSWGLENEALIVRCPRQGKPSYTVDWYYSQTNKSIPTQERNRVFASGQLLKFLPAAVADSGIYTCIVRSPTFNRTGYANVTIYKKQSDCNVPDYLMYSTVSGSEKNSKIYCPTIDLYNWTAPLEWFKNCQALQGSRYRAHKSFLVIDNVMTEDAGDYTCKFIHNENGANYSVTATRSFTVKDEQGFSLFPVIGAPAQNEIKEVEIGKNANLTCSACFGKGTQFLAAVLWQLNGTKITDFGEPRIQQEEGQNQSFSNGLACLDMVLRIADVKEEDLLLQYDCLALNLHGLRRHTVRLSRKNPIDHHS
- PROTOCOL SUMMARY: affinity table; method not stated
Hi! Could you send only the number? It should be in s⁻¹, unit omitted.

STLM229 (antibody, from another filing, V domains shown) VH: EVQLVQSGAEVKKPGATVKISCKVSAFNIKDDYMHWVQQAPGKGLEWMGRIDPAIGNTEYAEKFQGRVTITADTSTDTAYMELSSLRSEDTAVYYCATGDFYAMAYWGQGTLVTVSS VL: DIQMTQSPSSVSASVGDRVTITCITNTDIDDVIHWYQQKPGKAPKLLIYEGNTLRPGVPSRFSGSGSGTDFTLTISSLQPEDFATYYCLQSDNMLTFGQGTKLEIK ... 0.000445
STLM227 (antibody, from another filing, V domains shown) VH: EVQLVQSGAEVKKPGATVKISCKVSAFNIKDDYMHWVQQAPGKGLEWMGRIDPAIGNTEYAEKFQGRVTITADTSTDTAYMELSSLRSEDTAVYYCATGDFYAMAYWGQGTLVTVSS VL: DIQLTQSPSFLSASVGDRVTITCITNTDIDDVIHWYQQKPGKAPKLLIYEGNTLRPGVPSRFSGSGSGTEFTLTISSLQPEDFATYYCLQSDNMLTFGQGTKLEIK ... 0.0017

Field: next binder
[in] State its koff: STLM222 (antibody, from another filing, V domains shown) VH: EVQLLESGGGLVQPGGSLRLSCAASGFTFSIYSMFWVRQAPGKGLEWVSDIGGEGGGTSYADSVKGRFTISRDNSKNTLYLQMNSLRAEDTAVYYCARDPWSTEGSFFVLDYWGQGTLVTVSS VL: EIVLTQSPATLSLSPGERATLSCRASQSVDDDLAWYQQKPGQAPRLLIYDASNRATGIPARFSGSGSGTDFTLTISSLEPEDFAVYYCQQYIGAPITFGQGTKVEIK
[out] 0.000301
